target: AtBioZ (FabH2, beta-ketoacyl-ACP synthase III) (Agrobacterium fabrum, UniProt Q7CTU0, C115A); construct: purified BioZ(C115A); assay: ITC (MicroCal PEAQ-ITC, […] °C), N = […]
measure: Kd (nM)
Numbers only, in nM.

Task item: Report Kd for CC(C)(COP(=O)(O)OP(=O)(O)OC[C@H]1O[C@@H](n2cnc3c(N)ncnc32)[C@H](O)[C@@H]1OP(=O)(O)O)[C@@H](O)C(=O)NCCC(=O)NCCSC(=O)CCCC(=O)O please.
Reply: 2640
